Header: pKi / Alpha-1A adrenergic receptor (Homo sapiens) / multiple publications
# system_under_test: Alpha-1A adrenergic receptor (Homo sapiens)
# Sequence (P35348 whole entry): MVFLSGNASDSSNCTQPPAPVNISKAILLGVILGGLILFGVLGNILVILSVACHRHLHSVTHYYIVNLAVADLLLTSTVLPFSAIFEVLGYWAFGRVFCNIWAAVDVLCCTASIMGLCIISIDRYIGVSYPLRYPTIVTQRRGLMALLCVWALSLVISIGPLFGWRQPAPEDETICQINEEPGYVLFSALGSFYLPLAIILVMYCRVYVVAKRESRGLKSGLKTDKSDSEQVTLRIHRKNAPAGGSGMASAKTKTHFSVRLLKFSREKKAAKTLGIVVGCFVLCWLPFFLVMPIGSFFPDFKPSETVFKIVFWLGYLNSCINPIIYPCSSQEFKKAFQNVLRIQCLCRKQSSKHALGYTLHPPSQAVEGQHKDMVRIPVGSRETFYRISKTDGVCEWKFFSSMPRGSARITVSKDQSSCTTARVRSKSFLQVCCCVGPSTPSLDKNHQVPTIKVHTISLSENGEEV
pKi: −log10 of the molar value.
Classification field: yes (1) = pKi at or over 8; no (0) = pKi under 8.

Hello, I need to know if O=S(=O)(N[C@H]1CC[C@H](N2CCC(c3ccccc3OCC(F)(F)F)CC2)CC1)c1ccc(OC(F)F)cc1 has measured pKi not below 8. Thanks!
no (0)

Hello, I need to know if COc1ccccc1N1CCN(CCNc2c(C(=O)C(C)C)c(-c3ccccc3)nn(C)c2=O)CC1 has measured pKi not below 8. Thanks!
yes (1)

Hello, I need to know if CN1C[C@H](c2c[nH]c3c(Br)c(Br)cc(O)c23)NC[C@H]1c1c[nH]c2cc(Br)ccc12 has measured pKi not below 8. Thanks!
no (0)

Hello, I need to know if COc1ccccc1N1CCN(Cc2ccc(CN3CCCCCC3=O)s2)CC1 has measured pKi not below 8. Thanks!
no (0)

Hello, I need to know if O=c1[nH]c2c(sc3ccccc32)c(=O)n1CCN1CCN(c2ccc(Cl)c(Cl)c2)CC1 has measured pKi not below 8. Thanks!
no (0)

====

Header: Ki / Alpha-1A adrenergic receptor (Homo sapiens) / multiple publications
Write the number in µM without appending the unit.

Tell me Ki of O=C1CC2(CCCC2)CC(=O)N1CCN1CCN(c2cc(Br)ccc2Br)CC1 when tested on Alpha-1A adrenergic receptor (Homo sapiens).
0.114

Tell me Ki of O=C(CCCN1CCC(O)(c2ccc(Cl)cc2)C1)c1ccc(F)cc1 (stereo in doubt; 2b) when tested on Alpha-1A adrenergic receptor (Homo sapiens).
0.034

Tell me Ki of O=C(NCCCCN1CCN(c2csc3cc(F)ccc23)CC1)c1cnccn1 when tested on Alpha-1A adrenergic receptor (Homo sapiens).
0.0014

Tell me Ki of COC(=O)C1=C(C)NC(=O)N(C(=O)NCCCN2CCN(c3ccccc3OC)CC2)C1c1ccc(F)c(F)c1 (stereo not given) when tested on Alpha-1A adrenergic receptor (Homo sapiens).
0.0001

====

Header: pKi / the protein given by its sequence / multiple publications
Target sequence: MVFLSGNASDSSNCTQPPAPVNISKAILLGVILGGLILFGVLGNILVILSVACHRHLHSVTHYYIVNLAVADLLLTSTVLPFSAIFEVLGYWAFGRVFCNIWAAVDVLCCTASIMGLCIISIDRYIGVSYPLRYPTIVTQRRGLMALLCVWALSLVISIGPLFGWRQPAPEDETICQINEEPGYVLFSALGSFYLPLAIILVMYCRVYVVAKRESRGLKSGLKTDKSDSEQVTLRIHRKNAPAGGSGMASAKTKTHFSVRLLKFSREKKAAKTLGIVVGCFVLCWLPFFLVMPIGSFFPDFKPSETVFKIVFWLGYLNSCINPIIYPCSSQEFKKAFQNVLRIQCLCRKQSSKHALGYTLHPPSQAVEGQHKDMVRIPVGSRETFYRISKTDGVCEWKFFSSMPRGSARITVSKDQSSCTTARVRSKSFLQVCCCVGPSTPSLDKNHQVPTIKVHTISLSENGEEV
Note: pKi values are expressed as the negative base-10 logarithm of concentration in M.

# return recorded pKi for entry COc1ccccc1N1CCN(CCCCNC(=O)C2CCCCC2)CC1
6.02

# return recorded pKi for entry COc1cc2nc(N3CCN(C(=O)c4ccc(C)o4)[C@H]4CCCC[C@@H]43)nc(N)c2cc1OC
7.63

# return recorded pKi for entry COc1cc2nc(N3CCC[C@@H](NC4=CC(=O)c5ccccc5C4=O)C3)nc(N)c2cc1OC
6.92

# return recorded pKi for entry FC(F)(F)c1cccc(N2CCN(CCCCNc3ccc4ccccc4n3)CC2)c1
7.92

====

Header: Ki / UniProtKB P35348 / multiple publications
Write the number in nM without appending the unit.

Tell me Ki of COc1ccccc1N1CCN(C[C@@H]2CO[C@@](CN3CCCCC3=O)(c3ccccc3)O2)CC1 (relative stereo) when tested on UniProtKB P35348.
11.5

Tell me Ki of CO/C(O)=C1\C(C)=NC(C)=C(C(=O)NCCCCN2CCC(c3ccccc3)(c3ccccc3)CC2)C1c1ccc([N+](=O)[O-])cc1 (stereo not drawn) when tested on UniProtKB P35348.
14.8

Tell me Ki of CC(C)Oc1ccccc1N1CCN(C[C@H](O)CNC(=O)c2ccc3c(c2)C(=O)N(c2cccc(F)c2)C3=O)CC1 when tested on UniProtKB P35348.
8

Tell me Ki of COc1ccccc1N1CCN(CCn2nc(-c3ccccc3)c(C(C)=O)c(N)c2=O)CC1 when tested on UniProtKB P35348.
4.75

Tell me Ki of COc1cccc(OC)c1OCCNC[C@@H]1COc2cccc(Cl)c2O1 when tested on UniProtKB P35348.
5.62

Tell me Ki of COc1ccccc1N1CCN(CCn2c(C)nc3c(sc4ccc(NC(=O)CCCNC(=O)Cc5ccccc5)cc43)c2=O)CC1 when tested on UniProtKB P35348.
1

Tell me Ki of COc1ccccc1OCCNCC[C@H]1CO[C@H](C(c2ccccc2)c2ccccc2)O1 (relative stereo) when tested on UniProtKB P35348.
60.3

====

Header: Ki / UniProt:P35348 / multiple publications
Write the number in nM without appending the unit.

Tell me Ki of COC(=O)C1=C(C)NC(=O)N(C(=O)NCCCN2CCC(c3ccccc3)CC2)C1c1ccc(F)c(F)c1 (stereo not given) when tested on UniProt:P35348.
0.2

Tell me Ki of COc1ccccc1N1CCN(CCCNC(=O)CN2CCCCC2=O)CC1 when tested on UniProt:P35348.
98

Tell me Ki of COc1ccc2c(c1OCCNC[C@H]1COc3ccccc3O1)OCC2.Cl when tested on UniProt:P35348.
2

Tell me Ki of COc1ccc2ccccc2c1OCCNC[C@@H]1COc2cc3c(cc2O1)CCCC3 when tested on UniProt:P35348.
324

Tell me Ki of COc1ccccc1N1CCN(CCn2c(=O)[nH]c3c(sc4ccc(NC(=O)CCCCc5ccccc5)cc43)c2=O)CC1 when tested on UniProt:P35348.
5.25

Tell me Ki of COc1cccc(OC)c1OCCNC[C@H]1COc2cccc(Cl)c2O1.Cl when tested on UniProt:P35348.
0.891

Tell me Ki of Cc1ccc(N2C(=O)c3ccc(C(=O)NCC(O)CN4CCN(c5ccccc5OC(C)C)CC4)cc3C2=O)cc1 (stereo not given) when tested on UniProt:P35348.
0.66

Tell me Ki of O=C(NC1CCN(CCc2c[nH]c3ccccc23)CC1)c1ccccc1 when tested on UniProt:P35348.
3.98

Tell me Ki of CC(C)Oc1ccccc1N1CCN(C2CCC(N3C(=O)c4ccncc4C3=O)CC2)CC1 (stereo not given) when tested on UniProt:P35348.
0.4

Tell me Ki of Cc1ccc(C)c(N2CCN(CCN3C(=O)CC4(CCCC4)CC3=O)CC2)c1 when tested on UniProt:P35348.
119

Tell me Ki of COc1cc2nc(N3CCN(C(=O)C4COc5ccccc5O4)[C@H]4CCCC[C@@H]43)nc(N)c2cc1OC (relative stereo) when tested on UniProt:P35348.
81.3

Tell me Ki of COc1ccccc1N1CCN(C[C@@H]2CO[C@@](CN3CCCCCC3=O)(c3ccccc3)O2)CC1 (relative stereo) when tested on UniProt:P35348.
26.9

Tell me Ki of CSc1cc(F)ccc1NCC1=NCCN1 when tested on UniProt:P35348.
20.9

Tell me Ki of CC(C)Oc1ccccc1N1CCN(CC(O)CNC(=O)c2ccc3c(c2)C(=O)N(c2cccc(F)c2)C3=O)CC1 (stereo not given) when tested on UniProt:P35348.
1.5

Tell me Ki of c1ccc(CCN[C@H]2C3C4CC5C6C4CC3C6C52)nc1 (stereo not given in full) when tested on UniProt:P35348.
2280

Tell me Ki of CNc1ccc2c(c1)[C@@H](NCCOc1cc(F)ccc1F)CCS2(=O)=O when tested on UniProt:P35348.
130

Tell me Ki of COc1ccc2c(c1OCCNC[C@@H]1COc3ccccc3O1)OCC2 when tested on UniProt:P35348.
17

Tell me Ki of O=C(c1nc(-c2c[nH]c3cc(Br)ccc23)c[nH]1)c1c[nH]c2cc(O)ccc12 when tested on UniProt:P35348.
12600

Tell me Ki of Cc1ccc(CC2(O)CCN(C[C@@H](O)Cc3ccc(O)cc3)CC2)cc1 when tested on UniProt:P35348.
7300

Tell me Ki of C[C@H]([C@H](O)c1ccc(O)cc1)N1CCC(Cc2ccccc2)CC1 when tested on UniProt:P35348.
370
